target: PI3Kδ (Homo sapiens); construct: Full length p110 subunits of PI3k α, β and δ, N-terminally labeled with polyHis tag; polyHis (N); assay: PI3Kδ Alphascreen assay
Sequence (O00329 whole entry): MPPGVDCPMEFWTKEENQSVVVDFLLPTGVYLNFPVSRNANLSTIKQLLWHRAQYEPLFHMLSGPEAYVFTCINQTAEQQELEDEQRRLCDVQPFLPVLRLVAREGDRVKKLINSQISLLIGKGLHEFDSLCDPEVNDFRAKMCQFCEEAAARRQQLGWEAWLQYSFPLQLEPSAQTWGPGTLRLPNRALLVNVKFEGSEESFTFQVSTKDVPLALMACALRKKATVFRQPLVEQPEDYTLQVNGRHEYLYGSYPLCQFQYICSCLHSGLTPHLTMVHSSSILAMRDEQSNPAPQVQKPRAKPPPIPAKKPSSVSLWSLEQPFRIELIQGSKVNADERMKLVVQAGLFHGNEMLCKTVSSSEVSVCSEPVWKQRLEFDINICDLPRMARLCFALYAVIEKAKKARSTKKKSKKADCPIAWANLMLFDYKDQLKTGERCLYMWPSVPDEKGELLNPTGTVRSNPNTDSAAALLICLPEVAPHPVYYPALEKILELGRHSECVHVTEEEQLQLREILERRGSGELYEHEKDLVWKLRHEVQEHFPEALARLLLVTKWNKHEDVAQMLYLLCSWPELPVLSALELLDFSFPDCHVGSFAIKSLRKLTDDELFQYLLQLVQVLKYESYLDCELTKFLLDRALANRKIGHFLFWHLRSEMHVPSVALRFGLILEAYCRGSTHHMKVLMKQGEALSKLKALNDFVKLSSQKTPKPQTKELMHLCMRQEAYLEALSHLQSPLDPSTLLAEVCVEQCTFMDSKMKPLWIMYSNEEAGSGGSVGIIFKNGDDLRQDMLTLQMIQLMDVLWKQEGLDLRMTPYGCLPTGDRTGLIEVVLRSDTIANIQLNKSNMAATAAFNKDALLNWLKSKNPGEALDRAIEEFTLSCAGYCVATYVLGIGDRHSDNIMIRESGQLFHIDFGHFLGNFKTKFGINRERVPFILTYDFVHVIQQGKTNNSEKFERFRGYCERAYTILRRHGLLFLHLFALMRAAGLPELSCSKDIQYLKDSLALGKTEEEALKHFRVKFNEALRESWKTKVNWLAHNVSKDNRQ
Sequence (P27986 whole entry partner): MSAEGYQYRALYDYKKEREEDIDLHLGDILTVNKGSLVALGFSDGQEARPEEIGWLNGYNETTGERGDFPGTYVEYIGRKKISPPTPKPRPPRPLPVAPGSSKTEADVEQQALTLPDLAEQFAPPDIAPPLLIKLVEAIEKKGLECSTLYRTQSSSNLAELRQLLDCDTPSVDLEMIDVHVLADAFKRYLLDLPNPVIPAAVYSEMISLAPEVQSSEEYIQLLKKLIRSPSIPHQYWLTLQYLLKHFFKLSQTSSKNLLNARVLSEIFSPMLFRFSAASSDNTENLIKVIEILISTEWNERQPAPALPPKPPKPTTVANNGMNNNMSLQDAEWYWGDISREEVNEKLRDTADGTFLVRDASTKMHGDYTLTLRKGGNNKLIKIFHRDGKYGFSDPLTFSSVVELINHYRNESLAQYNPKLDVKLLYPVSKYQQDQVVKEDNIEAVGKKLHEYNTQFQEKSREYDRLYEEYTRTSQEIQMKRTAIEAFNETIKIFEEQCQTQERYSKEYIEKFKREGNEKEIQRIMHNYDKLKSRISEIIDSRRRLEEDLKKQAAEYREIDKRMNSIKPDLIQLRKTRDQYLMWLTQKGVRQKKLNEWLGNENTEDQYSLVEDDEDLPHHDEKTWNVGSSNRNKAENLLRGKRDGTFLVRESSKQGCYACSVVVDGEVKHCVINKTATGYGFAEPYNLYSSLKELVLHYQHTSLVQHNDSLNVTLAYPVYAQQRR
Parameter measured: Ki (µM)

[I] COC(=O)N1CCN(c2nc3cc(F)cc(F)c3c(Nc3cc(N4CCOCC4)cnc3N3CCOCC3)c2C)CC1
[II] Cc1c(N2CCN(C(=O)c3cccnc3)CC2)nc2cc(F)cc(F)c2c1Nc1cncc(N2CCOCC2)c1
[III] COc1ccc(-c2ncc(N3CCOCC3)cc2Nc2c(C)c(-c3ccccc3S(C)(=O)=O)nc3cc(F)cc(F)c23)cn1
[IV] COc1cncc(-c2nc3cc(F)cc(F)c3c(Nc3cncc(N4CCOCC4)c3)c2C)c1
Give the order of the entries above, sorted from least to greatest Ki. Your reply should list the labels following the order given in the request. III, I, IV, II
(III: 0.00176 µM, I: 0.00702 µM, IV: 0.0374 µM, II: 0.343 µM)
